- PROTOCOL_NOTES: Stability of pitavastatin calcium crystalline form at 40° C./75% RH and 25° C./60% RH (water by KF, related substances)
- Assay type: physicochemical
- RUN_CONDITIONS: Initial
QUANTITY_MEASURED: Related Substances: 5-oxo
Answer format: number, then unit.

For `O=C(O)C[C@H](O)C[C@H](O)/C=C/c1c(C2CC2)nc2ccccc2c1-c1ccc(F)cc1` the compound record lists Related Substances: 5-oxo as 0.07%

---

- PROTOCOL_NOTES: Stability of pitavastatin calcium crystalline form at 40° C./75% RH and 25° C./60% RH (water by KF, related substances)
- Type: physicochemical
- RUN_CONDITIONS: 3 month, 40° C. ± 2° C., RH 75% ± 5%
- Procedure: In general, the stability of pitavastatin calcium crystalline form having water content 5% wt/wt at 40° C./75% RH and 25° C./60% RH is shown in Table-1.
QUANTITY_MEASURED: Related Substances: Desflouro (%)
Please respond with the number in % and leave the unit unwritten.

For `O=C(O)C[C@H](O)C[C@H](O)/C=C/c1c(C2CC2)nc2ccccc2c1-c1ccc(F)cc1` the compound record lists Related Substances: Desflouro as 0.05
